Value source: the supplement of paper PMC10567573

B1: KLHL14 (parent)
chain: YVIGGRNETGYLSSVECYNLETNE

Variants of: B1
Test Name: protein stability index of a GFP-peptide fusion (GPS, HEK-293T) (PSI 1-6); higher = more stable;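 also: lentivirally expressed fusions sorted by FACS into six bins by GFP to DsRed ratio, PSI derived from sequencing read proportions per bin multiplied by bin number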
Condition: c terminus: a fixed tail appended
Please respond with reported protein stability index for every item in the list.
Give bare numbers.

Examples from the recorded data:
Fill blank: measured protein stability index of the variant Y1P is ____. 4.82

Fill blank: measured protein stability index of the variant Y1H is ____. 4.61

Give one value of protein stability index per listed variant.
1. N7A
2. Y1K
3. N7Q
4. T9N
5. R6P
6. E16F

[2.03, 4.12, 1.91, 1.83, 2.51, 3.4]
